System: MTLn3/Neo cells
Assay: Modulation of thiotepa cytotoxicity (cell proliferation by DNA content)
Type: cell-based
Details: read-out: IC50 value of thiotepa, No Inh
pIC50: −log10 of the molar value.
RESULT TYPE: pIC50

{"columns": ["STRUCTURE AS SMILES", "ASSAY TARGET", "EXPERIMENTAL VALUE"],
 "data": [
  ["S=P(N1CC1)(N1CC1)N1CC1", "MTLn3/Neo cells", 3.79]
]}

----------
Molecular target: human GSTM1-1 (Homo sapiens)
Sequence (P09488 2-218 limits assumed): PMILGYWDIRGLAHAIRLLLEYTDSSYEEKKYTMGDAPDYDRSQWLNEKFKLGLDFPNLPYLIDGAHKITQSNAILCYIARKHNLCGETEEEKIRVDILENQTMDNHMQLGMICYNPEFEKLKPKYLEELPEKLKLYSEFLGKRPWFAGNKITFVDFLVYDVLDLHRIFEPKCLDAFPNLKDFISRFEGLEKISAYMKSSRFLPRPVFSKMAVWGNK
Assay: GST inhibition assay (CDNB conjugation), Ki determination
Details: human recombinant GSTM1-1; ± SD; 50 μM inhibitor, 50 μM-4 mM GSH, 1 mM CDNB, pH 6.5
Protocol: Human recombinant GST isoenzymes A1-1, M1-1 and P1-1 were used for the GST inhibition assays. Experiments were performed according to Habig et al; (1974), J. Biol. Chem. 249, 7130-7139, modified for a 96-wells plate-reader assay. […] The reaction was initiated by addition of CDNB in ethanol (final concentration 1 mM, 1% ethanol in assay mix), after which the formation of GS-DNB was spectrophotometrically monitored at 340 nm. […]
pKi: −log10 of the molar value. Numbered stars: 1 amine (or outer) side, 2 acyl side, 3 side chain; on linkers, the order of the positions; unused ones are H or OH. Square brackets hold non-standard residues; d marks the D form. Peptide text beside a SMILES is read from it. * marks the point of attachment. ξ: configuration not given here. γGlu = O=C(O)[C@H](CCC(=O)[*:2])N[*:1]; ξPhg = NC(C(=O)O)c1ccccc1; Bn = c1ccc(C*)cc1
RESULT TYPE: pKi

{"columns": ["COMPOUND", "RESULT TYPE", "EXPERIMENTAL VALUE"],
 "data": [
  ["N[C@@H](CCC(=O)N[C@@H](CSCc1ccccc1)C(=O)NC(C(=O)O)c1ccccc1)C(=O)O (stereo partly drawn) [GluPhg-Benzyl (I), reference compound] (γGlu-Cys(Bn)-[ξPhg]-OH)", "pKi", 4.68],
  ["N[C@@H](COC(=O)N[C@@H](CSCc1ccccc1)C(=O)NC(C(=O)O)c1ccccc1)C(=O)O (stereo partly drawn) [UrPhg-Benzyl (III), H-Glo[Cys(Bzl)-Phg-OH]-OH]", "pKi", 4.80],
  ["N[C@@H](CCCN[C@@H](CSCc1ccccc1)C(=O)NC(C(=O)O)c1ccccc1)C(=O)O (stereo partly drawn)", "pKi", 4.54]
]}

The reported numbers originate from patent US6747009B2.
